Source of measurements: PubChem BioAssay AID256

Reported T/C is given for each of the following compounds.
# Test system: CD2F1 mice, L1210 leukemia ip, survival T/C
# Test Method Notes: NCI In Vivo Anticancer Drug Screen. Data for tumor model L1210 Leukemia (intraperitoneal) in CD2F1 (CDF1) mice
# Test Settings: endpoint: mean survival time; dose: 100.0 mg/kg/injection; schedule: Q01DX009 (ip); vehicle: Klucel (hydroxypropylcellulose) (HPC); higher = longer survival
# Description: The antitumor activity of compounds was measured in mice bearing transplantable tumors. Survival or tumor size were measured and the results are expressed as the measurement made in the treated group (T) divided by the measurement made in the vehicle treated control group (C). The tumor model used in this assay is L1210 Leukemia (intraperitoneal) in CD2F1 (CDF1) mice
Inconclusive results and toxic doses are left out.

# annotated cases, reported T/C shown
{"Compound Structure String": "CN1CCc2c(c3ccccc3c3ccccc23)C1", "Value Reported": "113 % of control"}
{"Compound Structure String": "CCN(CC)c1ccc(-c2nc3ccccc3s2)cc1", "Value Reported": "98 % of control"}

Let's switch to this compound now.
T/C of O=C(O)C1(NO)CCCCC1 , assay on CD2F1 mice, L1210 leukemia ip, survival T/C, is 100 % of control
